assay target: T1, HLA-B*44:02 (human)
T1 construct: Peptide-receptive MHC monomer made by UV cleavage of a UV-sensitive peptide
measurement description: UV-ligand exchange, anti-b2m ELISA; exchange yield grade (+ >10%, ++ >20%, +++ >50, ++++ >75%)
readout name: peptide exchange yield

get_value(item= `KEFNLQNMGL` , readout=peptide exchange yield) returns 50 to 75%

get_value(item= `REAEPIPKM` , readout=peptide exchange yield) returns 20 to 50%

get_value(item= `EEKLIIQDF` , readout=peptide exchange yield) returns 20 to 50%

get_value(item= `TEATMTFKY` , readout=peptide exchange yield) returns 50 to 75%

get_value(item= `LEMPHYSTF` , readout=peptide exchange yield) returns > 75%

get_value(item= `AEETCAPSV` , readout=peptide exchange yield) returns 20 to 50%

get_value(item= `GEATLQRIY` , readout=peptide exchange yield) returns 10 to 20%

get_value(item= `NEINEKIAPSF` , readout=peptide exchange yield) returns 50 to 75%
